targetOrSystem: Human VPS34 (Homo sapiens (Human), UniProt Q8NEB9)
Sequence (Q8NEB9 whole entry): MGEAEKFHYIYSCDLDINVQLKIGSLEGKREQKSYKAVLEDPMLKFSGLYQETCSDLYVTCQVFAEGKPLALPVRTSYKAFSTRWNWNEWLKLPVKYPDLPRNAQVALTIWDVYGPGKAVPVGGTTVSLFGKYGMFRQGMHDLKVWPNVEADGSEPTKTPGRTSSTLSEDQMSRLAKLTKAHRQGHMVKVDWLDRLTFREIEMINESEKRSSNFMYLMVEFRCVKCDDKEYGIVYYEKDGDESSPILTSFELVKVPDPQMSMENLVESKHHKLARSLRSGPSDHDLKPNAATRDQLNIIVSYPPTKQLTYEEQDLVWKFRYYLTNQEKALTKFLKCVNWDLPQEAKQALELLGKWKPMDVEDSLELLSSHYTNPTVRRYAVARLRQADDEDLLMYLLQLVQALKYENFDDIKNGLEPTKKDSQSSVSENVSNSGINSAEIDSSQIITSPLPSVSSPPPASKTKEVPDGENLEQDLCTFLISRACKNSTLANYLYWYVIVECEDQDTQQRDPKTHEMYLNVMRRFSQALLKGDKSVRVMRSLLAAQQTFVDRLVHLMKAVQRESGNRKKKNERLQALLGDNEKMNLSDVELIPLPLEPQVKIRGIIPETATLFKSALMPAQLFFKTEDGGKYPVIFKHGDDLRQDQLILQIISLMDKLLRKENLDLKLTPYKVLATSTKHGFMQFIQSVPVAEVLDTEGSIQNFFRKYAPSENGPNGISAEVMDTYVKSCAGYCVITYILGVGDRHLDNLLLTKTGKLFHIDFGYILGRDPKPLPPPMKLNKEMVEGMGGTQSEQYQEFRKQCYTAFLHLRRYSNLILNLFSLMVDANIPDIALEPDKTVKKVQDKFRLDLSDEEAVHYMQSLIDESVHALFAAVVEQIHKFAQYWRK
experimentNotes: Human VPS34 enzyme assay (Adapta TR-FRET)
Type: biochemical
conditionInfo: compound concentration 1.11 μM; read-out: Percent Inhibition
propertyName: inhibition at 1.11 µM (%)

CCOC(=O)Nc1cc(-c2cnc(Cl)c(NS(=O)(=O)c3ccc(F)cc3F)c2C)ccn1 [Compound I-383] ... 91
Cc1c(-c2ccnc(Nc3ccnc(C4CC4)n3)c2)cnc(Cl)c1C(=O)O [Compound I-369] ... 97
Cc1nccc(Nc2cc(-c3cnc(C)c(NS(=O)(=O)c4ccc(F)cc4F)c3)ccn2)n1 [Compound I-291] ... 95
